TARGET_SYSTEM: Lck (Homo sapiens, UniProt P06239)
Sequence (P06239 whole entry, species assumed): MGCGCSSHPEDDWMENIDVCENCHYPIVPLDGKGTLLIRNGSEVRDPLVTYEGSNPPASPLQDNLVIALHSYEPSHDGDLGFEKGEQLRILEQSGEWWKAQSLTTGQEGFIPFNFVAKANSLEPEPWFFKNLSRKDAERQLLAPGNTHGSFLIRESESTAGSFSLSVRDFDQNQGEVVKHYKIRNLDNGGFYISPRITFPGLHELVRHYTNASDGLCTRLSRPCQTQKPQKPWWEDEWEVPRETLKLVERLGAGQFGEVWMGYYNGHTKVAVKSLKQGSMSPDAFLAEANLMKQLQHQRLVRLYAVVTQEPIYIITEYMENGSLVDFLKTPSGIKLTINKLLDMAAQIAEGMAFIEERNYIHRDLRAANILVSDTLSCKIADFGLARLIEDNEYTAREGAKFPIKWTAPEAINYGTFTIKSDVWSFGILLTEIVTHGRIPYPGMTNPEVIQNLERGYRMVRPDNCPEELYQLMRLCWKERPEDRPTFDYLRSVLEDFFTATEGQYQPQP
EXPERIMENT_SUMMARY: Lck kinase activity, TR-FRET assay
Assay type: biochemical
MEASUREMENT_CONDITIONS: read-out: LCK (IC50)
pIC50: −log10 of the molar value.
METRIC: pIC50

MOLECULE	pIC50
CCNC(=O)N1CCC[C@@H](Nc2n[nH]c3nccc(Oc4ccc(C(=O)Nc5nc6ccccc6s5)cc4)c23)C1	6.00 to 7.00
C=CC(=O)N1CCC[C@@H](Nc2n[nH]c3nccc(Oc4ccc(Oc5ccccc5)cc4)c23)C1	> 7.00
CCNC(=O)N1CCC[C@@H](Nc2n[nH]c3nccc(Oc4ccc(C(=O)Nc5cc(C)ccn5)cc4)c23)C1	5.00 to 6.00

Data request: Record request: pIC50 value, item Cc1ccnc(NC(=O)c2ccc(Oc3ccnc4[nH]nc(N[C@@H]5CCCN(C(=O)C6(C)CCOC6)C5)c34)cc2)c1 (stereo partly drawn)
Data returned: 5.00 to 6.00

Data request: Another: Cc1ccnc(NC(=O)c2ccc(Oc3ccnc4[nH]nc(N[C@@H]5CCCN(C(=O)C6(C#N)CC6)C5)c34)cc2)c1
Data returned: 6.00 to 7.00

Data request: Another: C=CC(=O)N1CCC[C@@H](Nc2n[nH]c3nccc(Oc4ccc(-c5nc6ccccc6o5)cc4)c23)C1
Data returned: 5.00 to 6.00

* * *

TARGET_SYSTEM: Lck (Homo sapiens, UniProt P06239)
EXPERIMENT_SUMMARY: Lck kinase activity, TR-FRET assay
Type: biochemical
MEASUREMENT_CONDITIONS: read-out: LCK (IC50)
pIC50: −log10 of the molar value.
METRIC: pIC50

See these solved cases before continuing.
CN1CC[C@@H](Nc2n[nH]c3nccc(Oc4ccc(Oc5ccccc5)cc4)c23)C1 > 7.00
CCOP(=O)(CCCC(=O)N1CCC[C@@H](Nc2n[nH]c3nccc(Oc4ccc(C(=O)Nc5cc(C)ccn5)cc4)c23)C1)OCC 6.00 to 7.00

Now consider the entry below.
Data request: Record request: pIC50 value, item Cc1cccc(NC(=O)c2ccc(Oc3ccnc4[nH]nc(N[C@@H]5CCCN(C(=O)C6(C)CCOCC6)C5)c34)cc2)n1
Data returned: 5.00 to 6.00

All values here come from patent US9580416B2.
